So I've got a bunch of sequences here, and I need their percentage of EdU-negative values.
System: hTERT-HMEC
Test: percentage of EdU-negative (G0-arrested) nuclei per well, 72 h; higher = more G0 arrest;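 note: secreted proteins added to cultured cells, EdU pulse at the end, nuclei found by Hoechst imaging, EdU status from nuclear versus surrounding ring intensity ratio, PBS as neutral control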
Conditions: protein concentration 0.225 µM; reference: sequence is the full UniProt precursor, the tested protein was the secreted form or ectodomain
Give bare numbers, in %.

Below, each entry is followed by its recorded percentage of EdU-negative result.
MARGGRGRRLGLALGLLLALVLAPRVLRAKPTVRKERVVRPDSELGERPPEDNQSFQYDHEAFLGKEDSKTFDQLTPDESKERLGKIVDRIDNDGDGFVTTEELKTWIKRVQKRYIFDNVAKVWKDYDRDKDDKISWEEYKQATYGYYLGNPAEFHDSSDHHTFKKMLPRDERRFKAADLNGDLTATREEFTAFLHPEEFEHMKEIVVLETLEDIDKNGDGFVDQDEYIADMFSHEENGPEPDWVLSEREQFNEFRDLNKDGKLDKDEIRHWILPQDYDHAQAEARHLVYESDKNKDEKLTKEEILENWNMFVGSQATNYGEDLTKNHDEL | 6.14
MSNTQAERSIIGMIDMFHKYTRRDDKIEKPSLLTMMKENFPNFLSACDKKGTNYLADVFEKKDKNEDKKIDFSEFLSLLGDIATDYHKQSHGAAPCSGGSQ | 5.53
MASTSYDYCRVPMEDGDKRCKLLLGIGILVLLIIVILGVPLIIFTIKANSEACRDGLRAVMECRNVTHLLQQELTEAQKGFQDVEAQAATCNHTVMALMASLDAEKAQGQKKVEELEGEITTLNHKLQDASAEVERLRRENQVLSVRIADKKYYPSSQDSSSAAAPQLLIVLLGLSALLQ | 4.84

Proceeding to the next sequence to report its percentage of EdU-negative.
Identify the measured percentage of EdU-negative of MRLSVRRVLLAAGCALVLVLAVQLGQQVLECRAVLAGLRSPRGAMRPEQEELVMVGTNHVEYRYGKAMPLIFVGGVPRSGTTLMRAMLDAHPEVRCGEETRIIPRVLAMRQAWSKSGREKLRLDEAGVTDEVLDAAMQAFILEVIAKHGEPARVLCNKDPFTLKSSVYLSRLFPNSKFLLMVRDGRASVHSMITRKVTIAGFDLSSYRDCLTKWNKAIEVMYAQCMEVGKEKCLPVYYEQLVLHPRRSLKLILDFLGIAWSDAVLHHEDLIGKPGGVSLSKIERSTDQVIKPVNLEALSKWTGHIPGDVVRDMAQIAPMLAQLGYDPYANPPNYGNPDPFVINNTQRVLKGDYKTPANLKGYFQVNQNSTSSHLGSS for hTERT-HMEC.
36.4

###

So I've got a bunch of sequences here, and I need their percentage of EdU-negative values.
Test system: MCF7
Test: percentage of EdU-negative (G0-arrested) nuclei per well, 72 h; higher = more G0 arrest
Conditions: protein concentration 0.225 µM; reference: sequence is the full UniProt precursor, the tested protein was the secreted form or ectodomain
Please answer using a numeric value trailed by its unit.

Below, each entry is followed by its recorded percentage of EdU-negative result.
MMRCCRRRCCCRQPPHALRPLLLLPLVLLPPLAAAAAGPNRCDTIYQGFAECLIRLGDSMGRGGELETICRSWNDFHACASQVLSGCPEEAAAVWESLQQEARQAPRPNNLHTLCGAPVHVRERGTGSETNQETLRATAPALPMAPAPPLLAAALALAYLLRPLA [Q496H8] | 23.3%
MRLLCGLWLWLSLLKVLQAQTPTPLPLPPPMQSFQGNQFQGEWFVLGLAGNSFRPEHRALLNAFTATFELSDDGRFEVWNAMTRGQHCDTWSYVLIPAAQPGQFTVDHGVEPGADREETRVVDSDYTQFALMLSRRHTSRLAVLRISLLGRSWLLPPGTLDQFICLGRAQGLSDDNIVFPDVTGWSPQASVC [Q6JVE5] | 32.2%
MKVSVAALSCLMLVTALGSQARVTKDAETEFMMSKLPLENPVLLDRFHATSADCCISYTPRSIPCSLLESYFETNSECSKPGVIFLTKKGRRFCANPSDKQVQVCMRMLKLDTRIKTRKN | 24.7%

Proceeding to the next sequence to report its percentage of EdU-negative.
Please look up its percentage of EdU-negative: MQAARGGAGRPERPGRPGRGPERERERPPGAGAASPCAAPGLPAGGATIHPGSPSAWPPRARAALRLWLGCVCFALVQADSPSAPVNVTVRHLKANSAVVSWDVLEDEVVIGFAISQQKKDVRMLRFIQEVNTTTRSCALWDLEEDTEYIVHVQAISIQGQSPASEPVLFKTPREAEKMASKNKDEVTMKEMGRNQQLRTGEVLIIVVVLFMWAGVIALFCRQYDIIKDNEPNNNKEKTKSASETSTPEHQGGGLLRSKI [Q8NAU1]
25.3%
